The values you see were collected from PubChem BioAssay AID1159580.

Property: normalized growth; scope: individual compounds
assay: chemical genetic growth profiling, strain panel (AID 1159580);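 note: tested at 20 µM; growth read once vehicle control cultures reached saturation at 30 °C; 1 = growth at the plate median or of vehicle wells; lower values mean less growth of the strain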; conditions: S. cerevisiae deletion strains, growth OD, locus YMR078C, strain ctf18, hits give low values
In all, about 5,500 compounds went through this assay and about 2,000 (36%) were called active. Not shown: some 18% with an inconclusive outcome. This is one part of the list.
metric.name: normalized growth

compound="C#C[C@]1(O)CCC2C3CCC4=C(CCC(=O)C4)C3CC[C@@]21C (some centres not stated)" measured_value=1
compound="CC(C)=CCCC1(C)C=Cc2c(O)c3c(c(CC=C(C)C)c2O1)OC12C(=CC4CC1C(C)(C)OC2(C/C=C(\\C)C(N)=O)C4=O)C3=O (configuration not stated)" measured_value=0.971
compound="Fc1ccc(C(c2ccccc2)(c2ccccc2F)n2ccnc2)cc1 (configuration not stated)" measured_value=0.101
compound="NC(Cc1c[nH]c2ccccc12)C(=O)O (configuration not stated)" measured_value=0.979
compound="COC(=O)/C(C)=C\\CC12OC(C)(C)C3CC(C=C4C(=O)c5c(O)c6c(c(CCC(C)(C)Cl)c5OC431)OC1(C)CCC(=C(C)C)C6C1)C2=O (configuration not stated)" measured_value=1
compound=NC(N)=N/N=C/c1c(Cl)cccc1Cl measured_value=1.02
compound=O=c1[nH]cc(F)c(=O)[nH]1 measured_value=0.994
compound="OC(CCN1CCCC1)(c1ccccc1)C1CCCCC1 (configuration not stated)" measured_value=0.966
compound=CC(C)(C#N)O[C@@H]1O[C@H](CO)[C@@H](O)[C@H](O)[C@H]1O measured_value=0.976
compound="CCC(C)C(=O)O[C@H]1[C@H](O)C2C(CN3CC(C)CCC3[C@@]2(C)O)C2C[C@]34O[C@]5(O)C(OC(=O)C(C)(O)CC)CC[C@@]3(C)C5C(OC(C)=O)[C@@H](OC(C)=O)C4[C@@]21O (some centres not stated)" measured_value=0.986
compound="CC(=O)NC(C(=O)O)C(C)(C)SN=O (configuration not stated)" measured_value=0.982
compound="C#C[C@]1(OC(C)=O)CCC2C3CCC4=CC(=O)CC[C@@H]4C3CC[C@@]21C (some centres not stated)" measured_value=0.958
compound=COc1ccc2c(c1)c(CC(=O)OCC(=O)O)c(C)n2C(=O)c1ccc(Cl)cc1 measured_value=1.01
compound=CNC(=O)O/N=C\C(C)(C)SC measured_value=0.992
compound=Cc1cc(O)cc(=O)o1 measured_value=0.991
compound=Nc1ccc(S(=O)(=O)Nc2ccnn2-c2ccccc2)cc1 measured_value=0.998
compound="C#C[C@]1(O)CCC2C3CCC4=CC(=O)CC[C@@H]4C3CC[C@@]21C (some centres not stated)" measured_value=0.964

---

experiment: chemical genetic growth profiling, strain panel (AID 1159580);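 note: tested at 20 µM; growth read once vehicle control cultures reached saturation at 30 °C; 1 = growth at the plate median or of vehicle wells; lower values mean less growth of the strain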; settings: S. cerevisiae deletion strains, growth OD, locus YPL055C, strain LGE1, hits give low values
Among all 5,500 compounds or so, about 2,000 (36%) were called active. Not shown: some 18% with an inconclusive outcome. The list shows a part of the results.
metric.name: normalized growth

compound=NC12CC3CC(CC(C3)C1)C2 measured_value="1.01 (inactive)"
compound="CC(C)=CCCC1(C)C=Cc2c(O)c3c(c(CC=C(C)C)c2O1)OC12C(=CC4CC1C(C)(C)OC2(C/C=C(\\C)C(N)=O)C4=O)C3=O (stereo unspecified)" measured_value="0.866 (inactive)"
compound=O=C(Nc1cc(C(=O)Nc2ccc(S(=O)(=O)O)cc2S(=O)(=O)O)cc(C(=O)Nc2ccc(S(=O)(=O)O)cc2S(=O)(=O)O)c1)Nc1cc(C(=O)Nc2ccc(S(=O)(=O)O)cc2S(=O)(=O)O)cc(C(=O)Nc2ccc(S(=O)(=O)O)cc2S(=O)(=O)O)c1 measured_value="0.968 (inactive)"
compound="COc1ccc(NC(=O)C(C)c2ccc(CC(C)C)cc2)cc1 (stereo unspecified)" measured_value="0.838 (inactive)"
compound="CCC(C)C(=O)O[C@H]1[C@H](O)C2C(CN3CC(C)CCC3[C@@]2(C)O)C2C[C@]34O[C@]5(O)C(OC(=O)C(C)(O)CC)CC[C@@]3(C)C5C(OC(C)=O)[C@@H](OC(C)=O)C4[C@@]21O (stereo partly specified)" measured_value="1.02 (inactive)"
compound=S=c1[nH]nc(SCCSc2n[nH]c(=S)s2)s1 measured_value="0.965 (inactive)"
compound=O=C(O)/C=C/C(=O)Nc1ccc(-n2nc(C(F)(F)F)cc2C(F)(F)F)cc1 measured_value="1 (inactive)"
compound=Cc1ccc(-c2cc(C(F)(F)F)nn2-c2ccc(S(N)(=O)=O)cc2)cc1 measured_value="0.986 (inactive)"
compound=COc1ccc2c(c1)c(CC(=O)O)c(C)n2C(=O)c1ccccc1 measured_value="1 (inactive)"
compound=COc1cccc(-c2nc(C#N)c(N)o2)c1 measured_value="0.966 (inactive)"
compound=CC(C)(C)c1nccc(-c2nn(-c3ccc(F)cc3)ccc2=O)n1 measured_value="0.949 (inactive)"
